# test.context: buffer; pH 7.4; 200.0 µM
measured.metric: solubility kinetic (µg/mL)
Entry rule: numbers only, all in µg/mL.

Name the recorded solubility kinetic of the item COc1ccccc1Nc1nc(NCCO)nc(N)c1[N+](=O)[O-] in your answer. 3.4

Name the recorded solubility kinetic of the item Cc1cc(OCC(=O)N(C)C2CCCCC2)cc(C)c1Cl in your answer. 15.4

Name the recorded solubility kinetic of the item Cc1ccc(CNS(=O)(=O)c2c(N)n(C)c(=O)n(C)c2=O)cc1 in your answer. 41.3

Name the recorded solubility kinetic of the item CCCNc1nc(OC)nc(N2CC3CC(C2)c2cccc(=O)n2C3)n1 (centres undefined) in your answer. 50.6

Name the recorded solubility kinetic of the item O=C(CN1CCCCCC1)Nc1ccc(Cl)cc1F in your answer. 28.1

Continuing:
Name the recorded solubility kinetic of the item CCC1C(C#N)=C(SCC(N)=O)NC2=C1C(=O)CC(C)(C)C2 (centres undefined) in your answer. 46.9

Name the recorded solubility kinetic of the item CCCCc1ccc(S(=O)(=O)NC2CCS(=O)(=O)C2)cc1 (centres undefined) in your answer. 47.9

Name the recorded solubility kinetic of the item COc1ccc(C2c3ccsc3CCN2C(C)=O)cc1 (centres undefined) in your answer. 32.2
